// provenance: the supplement of paper PMC13380429

System: HepG2
assay.overview: relative viability EC50 (midpoint between 100% and the lowest measured viability); higher = less toxic
details: 72 h
property.label: relative viability EC50

Qu. Entry under review: Cc1cccc(N(C)C(=S)Oc2ccc3ccccc3c2)c1 [tolnaftate] . Reported relative viability EC50?
Ans. > 10 µM

Qu. And for `C[C@@H]1CN(Cc2ccc(F)cc2)CCN1C(=O)COc1ccc(Cl)cc1NC(N)=O` ?
Ans. 0.635 µM

Qu. Now the compound `O=C(O)CCCCN(CCc1ccccc1OCc1ccc(CCc2ccccc2)cc1)Cc1ccc(C(=O)O)cc1`
Ans. > 10 µM

Qu. Repeat with C[N+](C)(CCOc1ccccc1)Cc1ccccc1 [bephenium-hydroxynaphthoate]
Ans. > 10 µM

Qu. Can you check `O=[N+]([O-])c1cc2nc(O)c(O)nc2cc1[N+](=O)[O-]` next?
Ans. > 10 µM

Qu. Please give the result for O=c1[nH]c2ccccc2n1CCCN1CCN(C(c2ccccc2)c2ccccc2)CC1 [oxatomide] too.
Ans. > 10 µM

Qu. Request: `O=C1S/C(=C\c2ccc(OCc3cccc(B(O)O)c3)cc2)C(=O)N1Cc1ccc(F)cc1`
Ans. > 10 µM

Qu. Here is the next compound: `O=C(NC1(c2ccccc2)CC1)c1c(CN2CCC(N3CCCCC3)CC2)c(-c2cccc(C(F)(F)F)c2)nc2cc(Br)ccc12`
Ans. 3.4 µM

Qu. Also check `NC(=S)N/N=C/c1ncccc1N`
Ans. 2.34 µM

Qu. Record: `Cc1cc2nc3c(=O)[nH]c(=O)nc-3n(C)c2cc1C=O`
Ans. 3.78 µM

Qu. Try `CN1CCN(c2ccc(OC(F)(F)F)c(Nc3ncc4c(n3)-c3c(c(C(N)=O)nn3CCO)CC4)c2)CC1` next.
Ans. 0.139 µM

Qu. Moving on to `Oc1ccc(-c2nc3cc(O)cc(Br)c3o2)cc1`
Ans. > 10 µM

Qu. Now try `COc1cc(NC(=O)c2ccc(-c3ccc(Cl)cc3)o2)cc(OC)c1` .
Ans. > 10 µM

Qu. Next up: `COC(=O)CN1CN(c2ccccc2)C2(CCN(Cc3cccc4ccccc34)CC2)C1=O`
Ans. > 10 µM

---

Test system: Vero E6
assay.overview: drug sensitivity score (DSS) for viability; higher = more toxic; extreme values may be limits of the assay
details: 72 h
Please respond with reported drug sensitivity score for every item in the list.
# print the numeric value only

Qu. Record request: drug sensitivity score value, item Cc1cc(C)c(NC(=O)C2CC3CCC2C3)c(C)c1 (configuration not stated)
Ans. 0

Qu. Can you check `CCC(=O)Nc1cccc(Oc2nc(Nc3ccc(N4CCN(C)CC4)cc3OC)ncc2Cl)c1` next?
Ans. 0

Qu. Likewise for `Nc1ncnc2c1ncn2CCOCP(=O)(O)O` ?
Ans. 0

Qu. Same question for `Cc1cc(C)c(S(=O)(=O)Nc2ccccc2C(F)(F)F)c(C)c1` please.
Ans. 0

Qu. What about this compound? `CN(C)CC(=O)Nc1ccc2[nH]c(=O)c3ccccc3c2c1`
Ans. 0

Qu. Do the same for `C[C@H](CCC(=O)O)[C@H]1CC[C@H]2[C@@H]3[C@H](O)C[C@@H]4C[C@H](O)CC[C@]4(C)[C@H]3C[C@H](O)[C@]12C` please
Ans. 0

Qu. Likewise for `O=C1NC(=O)/C(=C/c2ccc3nccc(-c4ccncc4)c3c2)S1` ?
Ans. 3.9

Qu. Moving on to `CN1CCN(c2ccc(OC(F)(F)F)c(Nc3ncc4c(n3)-c3c(c(C(N)=O)nn3CCO)CC4)c2)CC1`
Ans. 8.8

Qu. Another compound: `S=C=Nc1cccc(NC(=S)NCCCCNC(=S)Nc2cccc(N=C=S)c2)c1`
Ans. 0

Qu. Here is the next compound: O=C(O)CC/C=C\C[C@@H]1CO[C@H](c2ccccc2Cl)O[C@@H]1c1ccccc1O (racemic)
Ans. 0

Qu. Next compound up: CCN1CCCC1CNC(=O)c1cc(S(=O)(=O)CC)c(N)cc1OC (configuration not stated) [amisulpride]
Ans. 0

Qu. For CCC(NC(C)C)C(O)c1ccc(O)c(O)c1 (configuration not stated) then?
Ans. 0

Qu. How about this compound: `CC1(COc2ccc3c(c2)ncn3-c2ccc3cccc(N4CCC(N)CC4)c3n2)COC1`
Ans. 4.1

Qu. Same question, `O=C(O)c1ccc2c(c1)C(=O)N(c1cccc(Oc3ccc([N+](=O)[O-])cc3)c1)C2=O` this time
Ans. 0

Qu. Repeat with `CN(C(=O)CN(CCO)CC(=O)N(C)C(C)(C)Cc1ccccc1)C(C)(C)Cc1ccccc1`
Ans. 0

Qu. Then `CC[C@@H](C(=O)[C@@H](C)[C@@H](O)[C@H](C)[C@@H]1O[C@@H]([C@@H](CC)C(=O)O)CC[C@@H]1C)[C@H]1O[C@]2(C=C[C@@H](O)[C@]3(CC[C@@](C)([C@H]4CC[C@](O)(CC)[C@H](C)O4)O3)O2)[C@H](C)C[C@@H]1C` ?
Ans. 6.7

Qu. Please do the same for `CC[C@H](C)[C@H](N)C1=N[C@H](C(=O)N[C@@H](CC(C)C)C(=O)N[C@H](CCC(=O)[O-])C(=O)N[C@H](C(=O)N[C@H]2CCCCNC(=O)[C@H](CC(N)=O)NC(=O)[C@@H](CC(=O)[O-])NC(=O)[C@H](Cc3cnc[nH]3)NC(=O)[C@@H](Cc3ccccc3)NC(=O)[C@H]([C@@H](C)CC)NC(=O)[C@@H](CCCN)NC2=O)[C@@H](C)CC)CS1.[Zn+2]` as well.
Ans. 0

Qu. Could you do the same for `CCOCc1nc2c(N)nc3ccccc3c2n1CC(C)(C)O` , please?
Ans. 0

Qu. Entry to check: `C=CC(=O)N1CCC(Oc2cc3c(Nc4ccc(Cl)c(Cl)c4F)ncnc3cc2OC)CC1`
Ans. 21.1

Qu. Cool, now `Cc1cc2nc3c(=O)[nH]c(=O)nc-3n(C)c2cc1C=O`
Ans. 0

Qu. Same thing, different compound: `CC1(C)OC(=O)NC1=O`
Ans. 0

Qu. Same question, `CN(C)CCCN1c2ccccc2CCc2ccccc21` this time
Ans. 0

Qu. Then CC(C)(C)NCC(O)c1cc(Cl)c(N)c(C(F)(F)F)c1 (configuration not stated) ?
Ans. 0

Qu. Queued: C=CC1=C(C)C2=CC3=NC(=C(CC(=O)O)C4=NC(=C(C)C4=C(O)O)C=c4[nH]c(c(C)c4CC)=CC1=N2)C(CCC(=O)O)C3C (configuration not stated)
Ans. 0

Qu. Next up: `CCOC(=O)N[C@@H]1CC[C@@H]2[C@@H](C1)C[C@H]1C(=O)O[C@H](C)[C@H]1[C@H]2/C=C/c1ccc(-c2cccc(F)c2)cn1`
Ans. 0

Qu. Quick one: `O=C1S/C(=C\c2ccc(OCc3cccc(B(O)O)c3)cc2)C(=O)N1Cc1ccc(F)cc1`
Ans. 0

Qu. Entry to check: `CCc1ccc(OCc2ccccc2C(=O)Nc2ccc3nc(C)cc(N)c3c2)cc1`
Ans. 6.4
